# Tested on: LG0567-F671-PDC complex spheroids viability
# MEASUREMENT_PROTOCOL: Anticancer human tumor LG0567-F671-PDC patient-derived lung adenocarcinoma cell line growth inhibition [RAS]
# DETAILS: curve of first compound; second compound 0.1 µM
pIC50: −log10 of the molar value.
Item-by-item account of pIC50
REPORTED_PROPERTY: pIC50

>  <COMPOUND>
CC(=O)OC12COC1CC(O)C1(C)C(=O)C(O)C3=C(C)C(OC(=O)C(O)C(NC(=O)OC(C)(C)C)c4ccccc4)CC(O)(C(OC(=O)c4ccccc4)C21)C3(C)C (stereo unspecified) + C#Cc1c(F)ccc2cc(O)cc(-c3ncc4c(N5CC6CCC(C5)N6)nc(OCC56CCCN5CC(F)C6)nc4c3F)c12

>  <REPORTED_PROPERTY>
pIC50

>  <VALUE>
> 7.50

$$$$
>  <COMPOUND>
CC1(C)CCC(Nc2ncc(C(F)(F)F)c(-c3c[nH]c4c(P(C)(C)=O)c(C#N)ccc34)n2)CN1 (stereo unspecified) + C#Cc1c(F)ccc2cc(O)cc(-c3ncc4c(N5CC6CCC(C5)N6)nc(OCC56CCCN5CC(F)C6)nc4c3F)c12

>  <REPORTED_PROPERTY>
pIC50

>  <VALUE>
> 9.02

$$$$
>  <COMPOUND>
Nc1ccn(C2OC(CO)C(O)C2(F)F)c(=O)n1 (stereo unspecified) + C#Cc1c(F)ccc2cc(O)cc(-c3ncc4c(N5CC6CCC(C5)N6)nc(OCC56CCCN5CC(F)C6)nc4c3F)c12

>  <REPORTED_PROPERTY>
pIC50

>  <VALUE>
< 6.00

$$$$
>  <COMPOUND>
Nc1ccn(C2OC(CO)C(O)C2(F)F)c(=O)n1 (stereo unspecified) + C=CC(=O)N1CCN(c2nc(OCC3CCCN3C)nc3c(F)c(-c4nc(N)cc(C)c4C(F)(F)F)c(Cl)cc23)C(C)C1

>  <REPORTED_PROPERTY>
pIC50

>  <VALUE>
> 8.50

$$$$
>  <COMPOUND>
C=CC(=O)Nc1cc(Nc2nccc(-c3cn(C)c4ccccc34)n2)c(OC)cc1N(C)CCN(C)C + C=CC(=O)N1CCN(c2nc(OCC3CCCN3C)nc3c(F)c(-c4nc(N)cc(C)c4C(F)(F)F)c(Cl)cc23)C(C)C1

>  <REPORTED_PROPERTY>
pIC50

>  <VALUE>
> 8.50

$$$$
>  <COMPOUND>
C[C@@H](NC(=O)c1ncnc(N)c1Cl)c1ncc(C(=O)Nc2cc(C(F)(F)F)c(Cl)cn2)s1 + C=CC(=O)N1CCN(c2nc(OCC3CCCN3C)nc3c(F)c(-c4nc(N)cc(C)c4C(F)(F)F)c(Cl)cc23)C(C)C1

>  <REPORTED_PROPERTY>
pIC50

>  <VALUE>
> 7.50

$$$$

====

# Tested on: LG0567-F671-PDC complex spheroids viability
# MEASUREMENT_PROTOCOL: Anticancer human tumor LG0567-F671-PDC cell line growth inhibition [RAS]; active = viability on the fitted dose curve at most 10% of control; inactive = the rest;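 also: spheroids exposed to compound for seven days before readout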
# DETAILS: second compound 3.16 µM; first compound 0.0316 µM
Outcomes: active, inactive

>  <COMPOUND>
C[C@@H](NC(=O)c1ncnc(N)c1Cl)c1ncc(C(=O)Nc2cc(C(F)(F)F)c(Cl)cn2)s1 + C#Cc1c(F)ccc2cc(O)cc(-c3ncc4c(N5CC6CCC(C5)N6)nc(OCC56CCCN5CC(F)C6)nc4c3F)c12

>  <CLASS>
inactive

$$$$
>  <COMPOUND>
CC(Nc1ccc2c(c1)OCCn1cc(N3C(=O)OCC3C(F)F)nc1-2)C(N)=O (configuration not stated) + C#Cc1c(F)ccc2cc(O)cc(-c3ncc4c(N5CC6CCC(C5)N6)nc(OCC56CCCN5CC(F)C6)nc4c3F)c12

>  <CLASS>
inactive

$$$$
>  <COMPOUND>
CC(C)n1nc(-c2ccc3oc(N)nc3c2)c2c(N)ncnc21 + C#Cc1c(F)ccc2cc(O)cc(-c3ncc4c(N5CC6CCC(C5)N6)nc(OCC56CCCN5CC(F)C6)nc4c3F)c12

>  <CLASS>
inactive

$$$$
>  <COMPOUND>
C=CC(=O)N1CCN(c2nc(OCC3CCCN3C)nc3c(F)c(-c4nc(N)cc(C)c4C(F)(F)F)c(Cl)cc23)C(C)C1 (configuration not stated) + C#Cc1c(F)ccc2cc(O)cc(-c3ncc4c(N5CC6CCC(C5)N6)nc(OCC56CCCN5CC(F)C6)nc4c3F)c12

>  <CLASS>
active

$$$$
>  <COMPOUND>
Cc1nc(N2CCC3(CC2)COC(C)C3N)c(CO)nc1Sc1ccnc(N)c1Cl (configuration not stated) + C#Cc1c(F)ccc2cc(O)cc(-c3ncc4c(N5CC6CCC(C5)N6)nc(OCC56CCCN5CC(F)C6)nc4c3F)c12

>  <CLASS>
inactive

$$$$
>  <COMPOUND>
CCN1CCN(Cc2ccc(Nc3ncc(F)c(-c4cc(F)c5nc(C)n(C(C)C)c5c4)n3)nc2)CC1 + C#Cc1c(F)ccc2cc(O)cc(-c3ncc4c(N5CC6CCC(C5)N6)nc(OCC56CCCN5CC(F)C6)nc4c3F)c12

>  <CLASS>
inactive

$$$$
>  <COMPOUND>
O=C(c1ccc(F)c(F)c1Nc1ccc(I)cc1F)N1CC(O)([C@@H]2CCCCN2)C1 + C#Cc1c(F)ccc2cc(O)cc(-c3ncc4c(N5CC6CCC(C5)N6)nc(OCC56CCCN5CC(F)C6)nc4c3F)c12

>  <CLASS>
inactive

$$$$
